# Experimental target: hemagglutinin on live influenza A virus, A/California/4/09 H1N1 (Influenza A virus …)
# Assay name: cell-based or functional assay
Quantity measured: % Neutralization (%)
The reply should contain only the number, in %.

TCN-537 (3194_D21) (antibody, V domains shown) VH: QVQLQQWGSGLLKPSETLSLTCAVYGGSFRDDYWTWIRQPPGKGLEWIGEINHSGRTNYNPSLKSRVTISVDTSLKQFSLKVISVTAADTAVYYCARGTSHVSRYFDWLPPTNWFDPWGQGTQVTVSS VL: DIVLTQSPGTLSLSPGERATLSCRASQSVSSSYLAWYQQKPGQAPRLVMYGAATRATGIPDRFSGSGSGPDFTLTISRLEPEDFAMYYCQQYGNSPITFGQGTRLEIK = 71

Read the next record carefully.
Q) Give the measured % Neutralization of TCN-536 (5095_N01) (antibody, V domains shown) VH: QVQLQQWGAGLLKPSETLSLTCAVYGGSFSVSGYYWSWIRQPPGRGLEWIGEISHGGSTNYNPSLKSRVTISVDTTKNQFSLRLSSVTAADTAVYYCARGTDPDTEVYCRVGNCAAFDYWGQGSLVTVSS VL: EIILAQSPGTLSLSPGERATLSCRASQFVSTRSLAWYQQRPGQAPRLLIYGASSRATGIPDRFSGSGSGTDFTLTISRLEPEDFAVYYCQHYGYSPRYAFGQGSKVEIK .
A) 18.8

This collection of values is drawn from patent US20150086555A1.
